ASSAY SYSTEM: MET (human) (Homo sapiens, UniProt P08581)
Sequence (P08581 25-1390): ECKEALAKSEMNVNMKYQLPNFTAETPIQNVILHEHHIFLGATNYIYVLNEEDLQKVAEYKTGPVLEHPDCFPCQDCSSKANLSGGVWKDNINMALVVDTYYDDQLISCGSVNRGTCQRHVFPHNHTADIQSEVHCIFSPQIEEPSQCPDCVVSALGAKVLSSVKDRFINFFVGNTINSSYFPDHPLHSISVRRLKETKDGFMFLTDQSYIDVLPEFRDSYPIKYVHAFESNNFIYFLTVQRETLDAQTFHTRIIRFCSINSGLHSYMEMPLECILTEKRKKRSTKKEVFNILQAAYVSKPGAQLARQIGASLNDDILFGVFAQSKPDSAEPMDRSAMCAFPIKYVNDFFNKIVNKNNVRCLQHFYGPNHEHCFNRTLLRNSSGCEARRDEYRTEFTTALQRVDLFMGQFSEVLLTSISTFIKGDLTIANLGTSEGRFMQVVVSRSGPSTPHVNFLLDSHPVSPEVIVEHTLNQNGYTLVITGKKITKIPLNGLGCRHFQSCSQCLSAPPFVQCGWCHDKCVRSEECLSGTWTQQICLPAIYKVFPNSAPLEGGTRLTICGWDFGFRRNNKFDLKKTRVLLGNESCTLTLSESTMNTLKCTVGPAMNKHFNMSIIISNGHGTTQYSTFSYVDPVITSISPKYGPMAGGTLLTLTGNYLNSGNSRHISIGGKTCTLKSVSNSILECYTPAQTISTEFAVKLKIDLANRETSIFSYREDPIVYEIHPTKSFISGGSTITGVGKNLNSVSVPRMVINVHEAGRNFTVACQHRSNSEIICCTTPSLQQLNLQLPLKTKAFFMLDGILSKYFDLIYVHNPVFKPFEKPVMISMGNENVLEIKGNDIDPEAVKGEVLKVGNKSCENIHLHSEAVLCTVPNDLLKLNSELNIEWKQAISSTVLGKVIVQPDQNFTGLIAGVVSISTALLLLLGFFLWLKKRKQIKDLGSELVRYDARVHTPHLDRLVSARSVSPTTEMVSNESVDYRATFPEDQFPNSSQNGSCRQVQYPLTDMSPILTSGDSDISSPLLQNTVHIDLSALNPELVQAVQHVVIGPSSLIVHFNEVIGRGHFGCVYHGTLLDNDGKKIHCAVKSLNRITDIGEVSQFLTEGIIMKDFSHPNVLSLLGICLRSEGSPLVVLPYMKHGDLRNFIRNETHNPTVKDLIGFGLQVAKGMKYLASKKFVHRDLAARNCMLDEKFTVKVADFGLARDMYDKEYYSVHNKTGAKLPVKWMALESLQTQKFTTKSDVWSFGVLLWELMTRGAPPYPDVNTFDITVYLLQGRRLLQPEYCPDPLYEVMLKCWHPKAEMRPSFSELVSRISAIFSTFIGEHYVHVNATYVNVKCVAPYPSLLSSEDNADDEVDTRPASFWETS
METHOD NOTES: MET (human) AlphaScreen kinase assay, Km of ATP
Format: biochemical
CONDITION CONTEXT: AlphaScreen, Km of ATP; read-out: Met biochemical IC50
pIC50: −log10 of the molar value.
EXPERIMENTAL READOUT: pIC50

Reference set (5 entries):
[
  {
    "COMPOUND": "Nc1ncc2c(-c3cnn(C4CCNCC4)c3)coc2c1OCCc1ccccc1",
    "VAL": "5.30 to 6.30"
  },
  {
    "COMPOUND": "Cn1c(Cc2ccccc2)ncc(-c2ccc(COc3c(N)ncc4ccoc34)c(F)c2)c1=O",
    "VAL": "4.70 to 5.30"
  },
  {
    "COMPOUND": "C[C@@H](Oc1c(N)ncc2c(-c3ccc(N4CCOCC4)nc3)coc12)c1c(Cl)ccc(F)c1Cl",
    "VAL": "5.30 to 6.30"
  },
  {
    "COMPOUND": "C[C@H](Oc1c(N)ncc2c(C3=CCN(C(N)=O)CC3)coc12)c1c(Cl)ccc(F)c1Cl",
    "VAL": "> 6.30"
  },
  {
    "COMPOUND": "Nc1ncc2ccoc2c1OCc1nnc2ccc(-c3ccccc3)nn12",
    "VAL": "5.30 to 6.30"
  }
]

Let's switch to this compound now.
Exercise: Consider the compound shown here: N#CCc1ccccc1COc1c(N)ncc2c(-c3cnn(C4CCNCC4)c3)coc12 What is its recorded pIC50?
Solution: 5.30 to 6.30

These data points were gathered from patent US8022206B2.
